System: Plasmodium falciparum
test.method.notes: GSK_TCMDC: Inhibition of Plasmodium falciparum Dd2 in whole red blood cells, using parasite LDH activity as an index of growth. Test compounds present at 2uM
Assay type: functional
quantity.name: Inhibition (%)

molecule: Cc1noc(NC(=O)c2sc3ccccc3c2O)c1C
measured.target: Plasmodium falciparum
quantity.name: Inhibition
value.units: %
measured.result: 50

molecule: CC(O)C1CCCCN1C(=O)c1cccc(-c2cccc(-c3nc4cc(F)ccc4[nH]3)c2)c1 (centres undefined)
measured.target: Plasmodium falciparum
quantity.name: Inhibition
value.units: %
measured.result: 99

molecule: Cc1cc(Nc2ncc(C#N)c(Nc3ccccc3C(N)=O)n2)ccc1N1CCN(C)CC1.Cl
measured.target: Plasmodium falciparum
quantity.name: Inhibition
value.units: %
measured.result: 94

molecule: O=C(Nc1ccc(Cl)c(C(F)(F)F)c1)N[C@H]1CCN(CCCCCNC(=O)C2CC2c2ccc(Cl)c(Cl)c2)C1 (some centres undefined)
measured.target: Plasmodium falciparum
quantity.name: Inhibition
value.units: %
measured.result: 0

molecule: Cc1ccc(-n2cc(CNCC3CCN(CCO)CC3)c(-c3ccc(F)cc3)n2)cc1
measured.target: Plasmodium falciparum
quantity.name: Inhibition
value.units: %
measured.result: 18

molecule: CCOc1cc(/C=N/Nc2nc3ccccc3[nH]2)ccc1OCc1ccc([N+](=O)[O-])cc1
measured.target: Plasmodium falciparum
quantity.name: Inhibition
value.units: %
measured.result: 1

molecule: CCN(CC)CCCC(C)N/C(=N\c1ccccc1Br)Nc1ccc(C#N)cc1O (centres undefined)
measured.target: Plasmodium falciparum
quantity.name: Inhibition
value.units: %
measured.result: 0

molecule: CCc1nc2c(cnn2CC)c(NC2CCOCC2)c1CNC(=O)N1CCOCC1
measured.target: Plasmodium falciparum
quantity.name: Inhibition
value.units: %
measured.result: 48

molecule: CCN(CC)S(=O)(=O)c1ccc(C(C)NC(=O)c2ccccc2COc2ccccc2)cc1 (centres undefined)
measured.target: Plasmodium falciparum
quantity.name: Inhibition
value.units: %
measured.result: 89

====

Tested on: Plasmodium falciparum
test.method.notes: GSK_TCMDC: Inhibition of Plasmodium falciparum 3D7 in whole red blood cells, using parasite LDH activity as an index of growth. Test compounds present at 2uM
Assay type: functional

structure: COc1ccc2c(NN=Cc3cccc(C)n3)ccnc2c1
value.units: %
Inhibition: 96
--
structure: Cc1ccc2nc(C)cc(N/N=C/c3ccc([N+](=O)[O-])o3)c2c1
value.units: %
Inhibition: 100
--
structure: Cc1ccc(O)cc1Nc1ccnc2ccc(-c3csc(CNCCN4CCOCC4)n3)cc12
value.units: %
Inhibition: 100
--
structure: COc1cc2nc(N(C)Cc3cc4c(Cl)cccc4s3)nc(N)c2cc1OC.Cl
value.units: %
Inhibition: 90
--
structure: Cc1ccccc1Nc1nc(NCCc2ccccc2)nc2ccccc12
value.units: %
Inhibition: 82
--
structure: Cc1cc(CNC(=O)c2ccc(-c3ccc(-c4nc5cc(C(F)(F)F)ccc5[nH]4)s3)cc2)on1
value.units: %
Inhibition: 93
--
structure: CS(=O)(=O)CCNCc1nc(-c2ccc3ncnc(Nc4ccc(OCc5ccccc5)c(Cl)c4)c3c2)cs1.Cl
value.units: %
Inhibition: 99
--
structure: CC(C)C[C@@H](C(=O)N[C@H](C(=O)Nc1nccs1)C(C)(C)C)[C@H](CCC(F)(F)F)N(O)C=O
value.units: %
Inhibition: 97
--
structure: Cc1[nH]c2ccc(C#N)cc2c(=O)c1Br
value.units: %
Inhibition: 91
--
structure: CC(=O)c1sc2ccccc2c1O
value.units: %
Inhibition: 91
